# target or test system: T1, Recombinant human OX40-His protein (human, UniProt P43489 29-214, limits assumed)
# T1 construct: Recombinant antigen protein; also called recombinant human OX-40 protein; human OX-40 protein; not shown: His tag
# T1 sequence (looked up): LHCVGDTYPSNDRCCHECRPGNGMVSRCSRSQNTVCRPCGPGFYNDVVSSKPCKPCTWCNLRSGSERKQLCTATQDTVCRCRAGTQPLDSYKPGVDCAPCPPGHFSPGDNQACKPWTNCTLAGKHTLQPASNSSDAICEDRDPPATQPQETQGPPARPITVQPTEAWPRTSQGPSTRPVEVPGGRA
# method notes: SPR (Biacore 8K), OX40-HIS coupled to chip, antibody as analyte, 1:1 binding model
measure: kon (M⁻¹ s⁻¹)
// note: answer is a bare numeric in M⁻¹ s⁻¹

Example cases with answers are listed next.
Chimeric antibody (anti-human OX40, recombinant, human IgG1/kappa constant regions) (antibody, V domains shown) VH: QIQLVQSGPELKKPGETVKISCKASGYTFTDYSMHWVKQAPGKGLKWMGWISTETGEPTYADDFKGRFAFSLETSASTAYLQIKNLKNEDTASYFCARVRPWYLAVWGAGTTVTVSS VL: DIQMTQTTSSLSASLGDRVTISCRASQDISNYLNWYQQKPDGTVKLLIYYTSRLYSGVPSRFSGSGSGADYSLTVSNLEQEDIATYFCQQANTLPLTFGAGTKLELK    339000
AH02906 humanized anti-human OX40 monoclonal antibody (recombinant human IgG1/kappa) (antibody, V domains shown) VH: QVQLVQSGAEVKKPGASVKVSCKASGYTFTDYSMHWVKQAPGQGLEWMGWISTETGEPTYADDFKGRFTITLDTSASTAYMELSSLRSEDTAVYYCARVRPWYLAVWGQGTLVTVSS VL: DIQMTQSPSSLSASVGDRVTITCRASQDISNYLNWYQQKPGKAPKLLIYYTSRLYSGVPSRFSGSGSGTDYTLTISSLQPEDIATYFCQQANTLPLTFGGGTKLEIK    408000
AH02917 humanized anti-human OX40 monoclonal antibody (recombinant human IgG1/kappa) (antibody, V domains shown) VH: QVQLVQSGAEVKKPGASVKVSCKASGYTFTDYSMHWVKQAPGQGLEWMGWISTETGEPTYADDFKGRFTITLDTSASTAYMELSSLRSEDTAVYFCARVRPWYLAVWGQGTLVTVSS VL: DIQMTQSPSSLSASVGDRVTITCRASQDISNYLNWYQQKPGKAVKLLIYYTSRLYSGVPSRFSGSGSGTDFTLTISSLQPEDIATYYCQQANTLPLTFGGGTKLEIK    407000

Turning now to a further binder:
Request: Please indicate kon recorded for AH02913 humanized anti-human OX40 monoclonal antibody (recombinant human IgG1/kappa) (antibody, V domains shown) VH: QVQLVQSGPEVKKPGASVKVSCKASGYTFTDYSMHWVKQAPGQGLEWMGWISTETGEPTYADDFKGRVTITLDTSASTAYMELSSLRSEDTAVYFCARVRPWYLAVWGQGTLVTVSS VL: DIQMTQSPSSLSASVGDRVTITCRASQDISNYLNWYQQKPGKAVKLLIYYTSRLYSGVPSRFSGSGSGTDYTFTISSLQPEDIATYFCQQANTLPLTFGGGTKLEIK
Response: 381000
